# target or test system: LTD4 evoked contractions of guinea pig ileum (Cavia porcellus, UniProt Q2NNR5)
# Construct: A section of terminal ileum was removed, the lumen cleaned, and the tissue divided into 2.5 cm. segments; from tissue; host or cells: terminal ileum of male Hartley guinea pigs
# Sequence (Q2NNR5 whole entry): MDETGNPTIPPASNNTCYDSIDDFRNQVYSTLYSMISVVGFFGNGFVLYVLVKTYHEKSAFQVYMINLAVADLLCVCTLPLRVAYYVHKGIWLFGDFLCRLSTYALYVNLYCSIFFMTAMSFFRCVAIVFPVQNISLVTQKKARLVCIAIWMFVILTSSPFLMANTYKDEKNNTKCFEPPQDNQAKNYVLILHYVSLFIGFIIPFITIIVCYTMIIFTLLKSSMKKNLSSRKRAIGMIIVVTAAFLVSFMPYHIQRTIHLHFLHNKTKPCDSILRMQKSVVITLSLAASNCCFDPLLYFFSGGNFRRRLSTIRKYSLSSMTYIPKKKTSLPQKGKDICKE
# protocol text: LTD4 antagonism, cumulative concentration-response curves (Schild pA2)
# Format: cell-based
# condition parameters: 30 minute incubation, negative log of KB

{"columns": ["molecule", "value units", "Kb"],
 "data": [
  ["CCCc1c(COc2ccc(C(=O)O)cc2)ccc(C(C)=O)c1O [Example 11]", "nM", 234],
  ["CC(=O)c1ccc(COc2ccc(Cc3nnn[nH]3)cc2)c(CC(C)C)c1O [Example 42]", "nM", 20],
  ["CCCc1c(CNc2ccc(Cc3nnn[nH]3)cc2)ccc(C(C)=O)c1O [Example 43]", "nM", 31.6],
  ["CCCc1c(COc2ccc(-c3nnn[nH]3)c(O)c2)ccc(C(C)=O)c1O [Example 34]", "nM", 8.71],
  ["CCCc1c(C=Cc2ccc(-c3nn[nH]n3)cc2)ccc(C(C)=O)c1O [Example 45]", "nM", 186],
  ["CCCc1c(COc2ccc(CCC(=O)O)cc2)ccc(C(C)=O)c1O [Example 15]", "nM", 26.3],
  ["CCCc1c(COc2ccc(C(C)c3nnn[nH]3)cc2)ccc(C(C)=O)c1O (stereo not drawn) [Example 36]", "nM", 12.6],
  ["CCCc1c(COc2ccc(C(=O)O)c(O)c2)ccc(C(C)=O)c1O [Example 13]", "nM", 26.9],
  ["CCCCC(=O)c1ccc(COc2ccc(CC(=O)O)cc2)c(CCC)c1O [Example 18]", "nM", 2090]
]}

* * *

# Test system: LTD4 evoked contractions of guinea pig ileum
# protocol text: Percent inhibition of LTD4 evoked ileal contractions (single submaximal LTD4 response, 5 minute drug exposure)
# Type: cell-based, guinea pig (male, Hartley)
# condition parameters: Cavia porcellus, Compound concentration 1 × 10^-6 M
Collected inhibition at 1 µM values appear next to each entry.

{"columns": ["molecule", "inhibition at 1 µM [%]"],
 "data": [
  ["CCCc1c(COc2ccc(CCC(=O)O)cc2)ccc(C(C)=O)c1O", 79],
  ["CCCc1c(COc2ccc(-c3nnn[nH]3)cc2)ccc(C(C)=O)c1O", 94],
  ["CC(=O)c1ccc(COc2ccc(-c3nnn[nH]3)cc2)c(C)c1O", 90],
  ["CCCc1c(COc2ccc(C(C)c3nnn[nH]3)cc2)ccc(C(C)=O)c1O (stereo not shown)", 94],
  ["CCCc1c(CNc2ccc(C(=O)O)cc2)ccc(C(C)=O)c1O", 70],
  ["CCCc1c(COc2ccc(C(=O)O)cc2)ccc(C(C)=O)c1O", 75],
  ["CCCCC(=O)c1ccc(COc2ccc(CC(=O)O)cc2)c(CCC)c1O", 21]
]}

* * *

# Test system: LTD4 evoked contractions of guinea pig ileum
# protocol text: Percent inhibition of LTD4 evoked ileal contractions (single submaximal LTD4 response, 5 minute drug exposure)
# Assay type: cell-based, guinea pig (male, Hartley)
# condition parameters: Cavia porcellus, Compound concentration 3 × 10^-6 M
Collected inhibition at 3 µM values appear next to each entry.

{"columns": ["molecule", "inhibition at 3 µM"],
 "data": [
  ["CCCCC(=O)c1ccc(COc2ccc(CC(=O)O)cc2)c(CCC)c1O", "65%"],
  ["CCCc1c(C[S+]([O-])Cc2ccc(-c3nnn[nH]3)cc2)ccc(C(C)=O)c1O (centres unmarked)", "39%"],
  ["CCCc1c(COc2ccc(C(=O)O)cc2)ccc(C(=O)c2ccccc2)c1O", "35%"],
  ["CCCc1c(COc2ccc(C(=O)O)cc2)ccc(C(C)=O)c1O", "94%"],
  ["CCCc1c(COc2cccc(C(=O)O)c2)ccc(C(C)=O)c1O", "67%"]
]}

* * *

Collected inhibition at 0.01 µM values appear next to each entry.
# System: LTD4 evoked contractions of guinea pig ileum
# protocol text: Percent inhibition of LTD4 evoked ileal contractions (single submaximal LTD4 response, 5 minute drug exposure)
# Type: cell-based, guinea pig (male, Hartley)
# condition parameters: Cavia porcellus, 5 min, Compound concentration 1 × 10^-8
quantity name: inhibition at 0.01 µM (%)

{"columns": ["molecule", "target or test system", "value measured"],
 "data": [
  ["CCCc1c(COc2ccc(C(C)c3nnn[nH]3)cc2)ccc(C(C)=O)c1O (stereo not shown)", "LTD4 evoked contractions of guinea pig ileum", 44],
  ["CC(=O)c1ccc(COc2ccc(Cc3nnn[nH]3)cc2)c(CC(C)C)c1O", "LTD4 evoked contractions of guinea pig ileum", 34],
  ["CCCc1c(COc2ccc3cc(-c4nn[nH]n4)ccc3c2)ccc(C(C)=O)c1O", "LTD4 evoked contractions of guinea pig ileum", 46],
  ["CCCc1c(COc2ccc(C(=O)O)c(O)c2)ccc(C(C)=O)c1O", "LTD4 evoked contractions of guinea pig ileum", 30],
  ["CCc1c(COc2ccc(Cc3nnn[nH]3)cc2)ccc(C(C)=O)c1O", "LTD4 evoked contractions of guinea pig ileum", 41],
  ["CCCc1c(COc2ccc(-c3nnn[nH]3)c(O)c2)ccc(C(C)=O)c1O", "LTD4 evoked contractions of guinea pig ileum", 50],
  ["CCCc1c(COc2ccc(Cc3nnn[nH]3)cc2)ccc(C(C)=O)c1O", "LTD4 evoked contractions of guinea pig ileum", 31]
]}

* * *

# target or test system: LTD4 evoked contractions of guinea pig ileum (Cavia porcellus, UniProt Q2NNR5)
# Construct: A section of terminal ileum was removed, the lumen cleaned, and the tissue divided into 2.5 cm. segments; from tissue; host or cells: terminal ileum of male Hartley guinea pigs
# protocol text: LTD4 antagonism, cumulative concentration-response curves (Schild pA2)
# Type: cell-based
# condition parameters: 30 minute incubation, negative log of KB
Threshold 0.09 µM. Kb below it: yes (1). Kb at it or above: no (0).

{"columns": ["smiles text", "target or test system", "assigned category"],
 "data": [
  ["CCCc1c(CNc2ccc(C(=O)O)cc2)ccc(C(C)=O)c1O", "LTD4 evoked contractions of guinea pig ileum (Cavia porcellus, UniProt Q2NNR5)", "no (0)"],
  ["CCCc1c(COCCCCc2nnn[nH]2)ccc(C(C)=O)c1O", "LTD4 evoked contractions of guinea pig ileum (Cavia porcellus, UniProt Q2NNR5)", "no (0)"],
  ["CCCc1c(COc2ccc(CCc3nnn[nH]3)cc2)ccc(C(C)=O)c1O", "LTD4 evoked contractions of guinea pig ileum (Cavia porcellus, UniProt Q2NNR5)", "yes (1)"],
  ["CCCc1c(COc2ccc(C(C)(C)c3nnn[nH]3)cc2)ccc(C(C)=O)c1O", "LTD4 evoked contractions of guinea pig ileum (Cavia porcellus, UniProt Q2NNR5)", "yes (1)"],
  ["CCCc1c(COCCOc2ccc(-c3nnn[nH]3)cc2)ccc(C(C)=O)c1O", "LTD4 evoked contractions of guinea pig ileum (Cavia porcellus, UniProt Q2NNR5)", "yes (1)"],
  ["CCCc1c(COc2ccc(OCC(=O)O)cc2)ccc(C(C)=O)c1O", "LTD4 evoked contractions of guinea pig ileum (Cavia porcellus, UniProt Q2NNR5)", "yes (1)"],
  ["CCCc1c(COc2cccc(C(=O)O)c2)ccc(C(C)=O)c1O", "LTD4 evoked contractions of guinea pig ileum (Cavia porcellus, UniProt Q2NNR5)", "no (0)"]
]}
